Value source: ChEMBL document CHEMBL4177698

Target: Atrial natriuretic peptide receptor 1 (Homo sapiens)
Sequence (P16066 whole entry): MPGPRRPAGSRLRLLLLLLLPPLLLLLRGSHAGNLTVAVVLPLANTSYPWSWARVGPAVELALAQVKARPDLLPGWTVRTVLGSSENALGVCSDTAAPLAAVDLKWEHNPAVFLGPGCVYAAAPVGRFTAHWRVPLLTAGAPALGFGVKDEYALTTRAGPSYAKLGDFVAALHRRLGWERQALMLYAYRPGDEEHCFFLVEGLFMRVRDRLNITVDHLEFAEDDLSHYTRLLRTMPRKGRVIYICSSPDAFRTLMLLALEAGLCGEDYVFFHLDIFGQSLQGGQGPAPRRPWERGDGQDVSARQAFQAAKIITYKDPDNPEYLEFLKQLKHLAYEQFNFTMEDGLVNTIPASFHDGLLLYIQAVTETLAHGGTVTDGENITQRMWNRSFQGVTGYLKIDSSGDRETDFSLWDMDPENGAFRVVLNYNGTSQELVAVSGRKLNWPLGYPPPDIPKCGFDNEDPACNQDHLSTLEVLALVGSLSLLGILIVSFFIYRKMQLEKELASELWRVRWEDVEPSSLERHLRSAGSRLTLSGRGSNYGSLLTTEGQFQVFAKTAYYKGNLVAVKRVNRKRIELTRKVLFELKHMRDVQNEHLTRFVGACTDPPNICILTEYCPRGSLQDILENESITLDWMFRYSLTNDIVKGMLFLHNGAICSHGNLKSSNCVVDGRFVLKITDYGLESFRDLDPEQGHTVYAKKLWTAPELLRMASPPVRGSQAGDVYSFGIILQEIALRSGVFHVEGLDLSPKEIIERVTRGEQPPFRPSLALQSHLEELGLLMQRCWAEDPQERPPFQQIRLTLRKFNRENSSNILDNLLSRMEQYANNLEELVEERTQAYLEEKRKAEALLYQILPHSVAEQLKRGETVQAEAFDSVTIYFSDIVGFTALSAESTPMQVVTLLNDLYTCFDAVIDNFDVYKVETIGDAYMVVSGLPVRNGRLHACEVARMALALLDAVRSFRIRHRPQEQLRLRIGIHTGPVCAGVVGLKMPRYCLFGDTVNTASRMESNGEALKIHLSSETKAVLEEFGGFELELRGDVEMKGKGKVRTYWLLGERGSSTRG
Experiment: Agonist activity at human NPR-A expressed in CHO cells assessed as increase in cGMP accumulation after 30 mins by radioimmunoassay
Observed Property: EC50
Answer shape: numeric part, then the unit.

Below: 4 compounds and their reported EC50.
Recorded EC50 (compound C[C@H](CO)Nc1nc(N[C@H]2CC[C@@H](NC(=O)NC(C)(C)CO)CC2)c2cc(-c3cccc(F)c3)ccc2n1 ): 220 nM

Recorded EC50 (compound CC(C)Nc1nc(N[C@H]2CC[C@@H](NC(=O)N(C)C(C)C)CC2)c2cc(-c3cccc(F)c3)ccc2n1 ): 4000 nM

Recorded EC50 (compound CC(C)NC(=O)N[C@H]1CC[C@@H](Nc2nc(NC(C)C)nc3ccc(-c4cccc(F)c4)cc23)CC1 ): 1500 nM

Recorded EC50 (compound C[C@H](CO)Nc1nc(N[C@H]2CC[C@@H](NC(=O)NC3CCCN(C)C3)CC2)c2cc(-c3cccc(F)c3)ccc2n1 (some centres undefined) ): 780 nM

New cases:
Recorded EC50 (compound CC(C)NC(=O)N[C@H]1CC[C@@H](Nc2nc(N(C)CCO)nc3ccc(-c4cccc(F)c4)cc23)CC1 ): 720 nM

Recorded EC50 (compound CC(C)[C@H](CO)NC(=O)N[C@H]1CC[C@@H](Nc2nc(N[C@H](C)CO)nc3ncc(-c4cccc(F)c4)cc23)CC1 ): 110 nM

Recorded EC50 (compound CC(C)Nc1nc(N[C@H]2CC[C@@H](NC(=O)N[C@@H](CO)C(C)C)CC2)c2cc(-c3cccc(F)c3)cnc2n1 ): 98 nM

Recorded EC50 (compound C[C@H](CO)Nc1nc(N[C@H]2CC[C@H](NC(=O)[C@H]3C[C@H](O)C3)CC2)c2cc(-c3cccc(F)c3)ccc2n1 ): 470 nM

Recorded EC50 (compound C[C@H](CO)Nc1nc(N[C@H]2CC[C@H](NC(=O)[C@H]3C[C@H](O)C3)CC2)c2cc(-c3ccccc3)ccc2n1 ): 900 nM

Recorded EC50 (compound CC(C)NC(=O)N[C@H]1CC[C@H](Nc2nc(N[C@H](C)CO)nc3ccc(-c4cccc(F)c4)cc23)CC1 ): 460 nM

###

Target: Atrial natriuretic peptide receptor 1 (Rattus norvegicus)
Sequence (P18910 whole entry): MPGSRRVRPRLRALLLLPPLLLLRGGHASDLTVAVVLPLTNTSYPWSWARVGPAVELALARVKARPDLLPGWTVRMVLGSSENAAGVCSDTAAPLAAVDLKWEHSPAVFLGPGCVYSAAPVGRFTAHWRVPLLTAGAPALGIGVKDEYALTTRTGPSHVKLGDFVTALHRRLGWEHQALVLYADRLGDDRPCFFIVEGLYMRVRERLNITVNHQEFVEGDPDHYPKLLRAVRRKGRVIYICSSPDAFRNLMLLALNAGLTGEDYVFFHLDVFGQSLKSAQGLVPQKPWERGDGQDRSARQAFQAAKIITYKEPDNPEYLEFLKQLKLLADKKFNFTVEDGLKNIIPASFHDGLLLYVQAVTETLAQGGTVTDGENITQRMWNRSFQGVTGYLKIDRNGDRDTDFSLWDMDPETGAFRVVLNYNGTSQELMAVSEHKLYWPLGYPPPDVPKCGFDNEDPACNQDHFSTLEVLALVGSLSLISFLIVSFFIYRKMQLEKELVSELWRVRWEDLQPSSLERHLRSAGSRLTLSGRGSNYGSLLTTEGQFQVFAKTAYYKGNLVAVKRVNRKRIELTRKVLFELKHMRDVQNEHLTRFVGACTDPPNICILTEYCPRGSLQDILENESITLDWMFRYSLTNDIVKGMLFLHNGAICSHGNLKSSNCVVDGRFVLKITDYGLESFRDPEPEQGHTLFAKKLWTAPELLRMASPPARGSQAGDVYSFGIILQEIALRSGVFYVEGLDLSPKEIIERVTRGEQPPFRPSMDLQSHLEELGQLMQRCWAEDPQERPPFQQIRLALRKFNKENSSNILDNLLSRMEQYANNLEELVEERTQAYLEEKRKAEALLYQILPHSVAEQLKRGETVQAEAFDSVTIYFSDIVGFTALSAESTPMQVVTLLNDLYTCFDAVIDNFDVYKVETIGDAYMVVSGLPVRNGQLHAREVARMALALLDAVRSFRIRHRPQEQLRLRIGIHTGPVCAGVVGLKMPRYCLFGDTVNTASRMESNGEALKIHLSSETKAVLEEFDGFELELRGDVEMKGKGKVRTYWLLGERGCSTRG
Test: Agonist activity at rat NPR-A expressed in CHO cells assessed as increase in cGMP accumulation after 15 mins by fluorescent assay
Observed Property: EC50 (nM)
The response must be a number in nM with no trailing unit.

Below: 5 compounds and their reported EC50.
Recorded EC50 (compound COC[C@@H](C)Nc1nc(N[C@H]2CC[C@@H](NC(=O)NC(C)C)CC2)c2nc(-c3cccc(F)c3)ccc2n1 ): 1600

Recorded EC50 (compound CC(C)N[C@H]1C[C@H](C(=O)N[C@H]2CC[C@H](Nc3nc(N[C@H](C)CO)nc4ccc(-c5ccccc5)cc34)CC2)C1 ): 2000

Recorded EC50 (compound CC(C)[C@H](CO)NC(=O)N[C@H]1CC[C@@H](Nc2nc(N[C@H](C)CO)nc3ncc(-c4cccc(F)c4)cc23)CC1 ): 62

Recorded EC50 (compound CC(C)Nc1nc(N[C@H]2CC[C@@H](NC(=O)N(C)C(C)C)CC2)c2cc(-c3cccc(F)c3)ccc2n1 ): 3000

Recorded EC50 (compound C[C@H](CO)Nc1nc(N[C@H]2CC[C@H](NC(=O)[C@H]3C[C@H](O)C3)CC2)c2cc(-c3cccc(F)c3)ccc2n1 ): 700

New cases:
Recorded EC50 (compound COC[C@H](C)Nc1nc(N[C@H]2CC[C@@H](NC(=O)NC3CC3)CC2)c2cc(-c3cccc(F)c3)ccc2n1 ): 1800

Recorded EC50 (compound C[C@H](CO)Nc1nc(N[C@H]2CC[C@H](NC(=O)N3CC(O)C3)CC2)c2cc(-c3cccc(F)c3)ccc2n1 ): 900

Recorded EC50 (compound COCCNc1nc(N[C@H]2CC[C@@H](NC(=O)NC(C)C)CC2)c2cc(-c3cccc(F)c3)ccc2n1 ): 610

Recorded EC50 (compound CC(C)Nc1nc(N[C@H]2CC[C@@H](NC(=O)N[C@@H](CO)C(C)C)CC2)c2cc(-c3cccc(F)c3)cnc2n1 ): 43

Recorded EC50 (compound CC(C)[C@H](CO)NC(=O)N[C@H]1CC[C@@H](Nc2nc(N[C@H](C)CO)nc3cnc(-c4cccc(F)c4)cc23)CC1 ): 130

Recorded EC50 (compound C[C@H](CO)Nc1nc(N[C@H]2CC[C@@H](NC(=O)NC3CC3)CC2)c2cc(-c3cccc(F)c3)ccc2n1 ): 180

Recorded EC50 (compound C[C@H](CO)Nc1nc(N[C@H]2CC[C@H](NC(=O)[C@H]3C[C@H](O)C3)CC2)c2cc(-c3ccccc3)ccc2n1 ): 1800

Recorded EC50 (compound COC[C@@H](C)Nc1nc(N[C@H]2CC[C@@H](NC(=O)NC(C)C)CC2)c2cc(-c3cccc(F)c3)ccc2n1 ): 160

Recorded EC50 (compound C[C@H](CO)Nc1nc(N[C@H]2CC[C@@H](NC(=O)NC3(CO)CCCC3)CC2)c2cc(-c3cccc(F)c3)ccc2n1 ): 120

Recorded EC50 (compound CC(C)NC(=O)N[C@H]1CC[C@H](Nc2nc(N[C@H](C)CO)nc3ccc(-c4cccc(F)c4)cc23)CC1 ): 530

Recorded EC50 (compound CC(C)[C@H](CO)NC(=O)N[C@H]1CC[C@@H](Nc2nc(N[C@H](C)CO)nc3ccc(-c4cccc(F)c4)cc23)CC1 ): 65

Recorded EC50 (compound COC[C@@H](C)Nc1nc(N[C@H]2CC[C@@H](NC(=O)NC3CC3)CC2)c2cc(-c3cccc(F)c3)ccc2n1 ): 270

Recorded EC50 (compound CC(C)NC(=O)N[C@H]1CC[C@@H](Nc2nc(N(C)CCO)nc3ccc(-c4cccc(F)c4)cc23)CC1 ): 2100

Recorded EC50 (compound CC(C)Nc1nc(N[C@H]2CC[C@@H](NC(=O)N[C@@H](CO)C(C)C)CC2)c2cc(-c3cccc(F)c3)ccc2n1 ): 290
